- studySystem: Prostaglandin G/H synthase 1 (Homo sapiens)
- Sequence (P23219 whole entry): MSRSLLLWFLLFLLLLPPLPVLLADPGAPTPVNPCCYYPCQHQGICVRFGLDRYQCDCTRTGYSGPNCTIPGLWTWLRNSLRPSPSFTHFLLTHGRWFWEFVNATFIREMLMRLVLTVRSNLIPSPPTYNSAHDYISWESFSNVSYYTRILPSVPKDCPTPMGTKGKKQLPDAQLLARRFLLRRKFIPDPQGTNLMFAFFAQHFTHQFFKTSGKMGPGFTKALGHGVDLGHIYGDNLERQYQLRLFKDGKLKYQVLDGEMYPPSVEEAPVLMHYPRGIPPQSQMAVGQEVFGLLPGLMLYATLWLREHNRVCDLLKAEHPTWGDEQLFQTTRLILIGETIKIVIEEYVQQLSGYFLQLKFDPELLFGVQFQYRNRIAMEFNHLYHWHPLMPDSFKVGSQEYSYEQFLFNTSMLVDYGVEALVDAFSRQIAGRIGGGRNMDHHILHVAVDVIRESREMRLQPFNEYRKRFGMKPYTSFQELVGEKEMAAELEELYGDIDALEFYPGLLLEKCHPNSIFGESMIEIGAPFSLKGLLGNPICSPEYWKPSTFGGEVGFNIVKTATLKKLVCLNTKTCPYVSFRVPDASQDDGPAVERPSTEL
- method: In vitro inhibition of cyclooxygenase-1 via inhibition of TXB2 generation in the presence of 1 uM arachidonic acid in human platelets at concentration of 10 uM
- Assay type: functional
measuredProperty: inhibition (%)

INSERT INTO measurements (linenotation, measuredproperty, datavalue) VALUES
  ('Cc1cc(/C=C/S(N)(=O)=O)ccc1C(=O)c1ccccc1', 'inhibition', 0),
  ('CS(=O)(=O)c1ccc(C2=C(c3ccccc3)C(=O)OC2)cc1', 'inhibition', 0),
  ('CS(=O)(=O)/C=C/c1ccc(C(=O)c2ccccc2)cc1', 'inhibition', 14),
  ('NS(=O)(=O)/C=C/c1cccc(C(=O)c2ccccc2)c1', 'inhibition', 0),
  ('Cc1cc(C(=O)c2ccccc2)ccc1/C=C/S(N)(=O)=O', 'inhibition', 0),
  ('NS(=O)(=O)/C=C/c1ccc(C(=O)c2ccccc2)cc1CO', 'inhibition', 25),
  ('NS(=O)(=O)/C=C/c1ccccc1C(=O)c1ccccc1', 'inhibition', 39),
  ('CCc1cc(/C=C/S(C)(=O)=O)cc(C(=O)c2ccccc2)c1', 'inhibition', 16);
